viability at 48 h, 30 µM listing for selected molecules.
- assay-procedure: in vitro
- Assay type: cell-based, human
- details: human, HEK293T Viability at 30 µM [%]
All answers are understood in %, so give the number only.

molecule=Cc1cccc(-c2c(C#N)c(N)nc3sc(C(=O)NCCN4CCOCC4)c(N)c23)c1 recorded_number=70.9
molecule=N#Cc1c(N)nc2sc(C(=O)Nc3ccccc3Cl)c(N)c2c1-c1ccc(N2CCOCC2)cc1Cl recorded_number=87
molecule=N#Cc1c(N)nc2sc(C(=O)Nc3ccccc3Cl)c(N)c2c1-c1cccc(Cl)c1 recorded_number=99.3
molecule="Cc1cc(-c2ccc(N3CCN(C(=O)OC(C)(C)C)CC3)cc2Cl)c2c(N)c(C(=O)Nc3ccc(Cl)cc3)sc2n1 [Compound 17l]" recorded_number=68.4
molecule=N#Cc1c(N)nc2sc(C(=O)Nc3cccc(Cl)c3)c(N)c2c1-c1ccc(N2CCNCC2)cc1Cl recorded_number=-13.1
molecule=Cc1cccc(-c2c(C#N)c(N)nc3sc(C(=O)Nc4ccc(Cl)cc4)c(N)c23)c1 recorded_number=83.3
molecule=CCCCCCCNC(=O)c1sc2nc(N)c(C#N)c(-c3cccc(C)c3)c2c1N recorded_number=54.3
molecule="Cc1cccc(-c2c3c(nc4sc(C(=O)Nc5ccc(Cl)cc5)c(N)c24)CCC3)c1 [Compound 17f]" recorded_number=72.4
molecule="Nc1c(C(=O)Nc2ccc(Cl)cc2)sc2nc3c(c(-c4ccccc4)c12)CCC3 [Compound 17b]" recorded_number=92.7
molecule=N#Cc1c(N)nc2sc(C(=O)Nc3ccccc3Cl)c(N)c2c1-c1cccc(F)c1 recorded_number=101

Entry CN(CCN)c1ccc(-c2c(C#N)c(N)nc3sc(C(=O)Nc4cccc(Cl)c4)c(N)c23)c(Cl)c1 has what viability at 48 h, 30 µM? -8.5

Entry N#Cc1c(N)nc2sc(C(=O)Nc3ccc(F)cc3)c(N)c2c1-c1ccc(N2CCOCC2)cc1Cl has what viability at 48 h, 30 µM? 86.1

Entry N#Cc1c(N)nc2sc(C(=O)Nc3ccc(Cl)cc3)c(N)c2c1-c1cccc(F)c1 has what viability at 48 h, 30 µM? 90.7

Entry Cc1cccc(-c2c(C#N)c(N)nc3sc(C(=O)NC(C)C)c(N)c23)c1 has what viability at 48 h, 30 µM? 70.6

Entry CNC(=O)c1sc2nc(N)c(C#N)c(-c3cccc(C)c3)c2c1N has what viability at 48 h, 30 µM? 67.2

Entry CN(C)CCN(C)c1ccc(-c2c(C#N)c(N)nc3sc(C(=O)Nc4cccc(Cl)c4)c(N)c23)c(Cl)c1 has what viability at 48 h, 30 µM? -7.4
